Tested on: 596521-263-R-J1-PDC complex spheroid growth
Assay name: Anticancer human tumor 596521-263-R-J1-PDC patient-derived soft tissue sarcoma cell line growth inhibition [Asc]
Particulars: second compound 0.3 µM; first compound 0.1 µM; stronger effect = lower value
Response field label takes 1 when viability, T/C is strictly below 90% and 0 in all other cases.

Compound	Study target	Assigned category
CCN1CCN(Cc2ccc(Nc3ncc(F)c(-c4cc(F)c5nc(C)n(C(C)C)c5c4)n3)nc2)CC1 + CCN1C(C(=O)NC23CCC(C(=O)O)(CC2)CC3)C(c2cccc(Cl)c2F)C2(C(=O)Nc3cc(Cl)ccc32)C12CCCCC2	596521-263-R-J1-PDC complex spheroid growth	0
O=C(c1ccc(F)c(F)c1Nc1ccc(I)cc1F)N1CC(O)([C@@H]2CCCCN2)C1 + CCN1C(C(=O)NC23CCC(C(=O)O)(CC2)CC3)C(c2cccc(Cl)c2F)C2(C(=O)Nc3cc(Cl)ccc32)C12CCCCC2	596521-263-R-J1-PDC complex spheroid growth	1
C#Cc1c(F)ccc2cc(O)cc(-c3ncc4c(N5CC6CCC(C5)N6)nc(OCC56CCCN5CC(F)C6)nc4c3F)c12 (stereo not given) + CCN1C(C(=O)NC23CCC(C(=O)O)(CC2)CC3)C(c2cccc(Cl)c2F)C2(C(=O)Nc3cc(Cl)ccc32)C12CCCCC2	596521-263-R-J1-PDC complex spheroid growth	0

[in] A record lists Cn1ncnc1[C@H]1c2n[nH]c(=O)c3cc(F)cc(c23)N[C@@H]1c1ccc(F)cc1 + CCN1C(C(=O)NC23CCC(C(=O)O)(CC2)CC3)C(c2cccc(Cl)c2F)C2(C(=O)Nc3cc(Cl)ccc32)C12CCCCC2 . Is its viability, T/C below 90%?
[out] 1

[in] Follow-up entry: COc1c(OCCCN2CCOCC2)ccc2c3n(c(=NC(=O)c4cnc(N)nc4)nc12)CCN3 + CCN1C(C(=O)NC23CCC(C(=O)O)(CC2)CC3)C(c2cccc(Cl)c2F)C2(C(=O)Nc3cc(Cl)ccc32)C12CCCCC2
[out] 1

[in] Follow-up entry: C=CC(=O)N1CCN(c2nc(=O)n(-c3c(C)ccnc3C(C)C)c3nc(-c4c(O)cccc4F)c(F)cc23)C(C)C1 (stereo not given) + CCN1C(C(=O)NC23CCC(C(=O)O)(CC2)CC3)C(c2cccc(Cl)c2F)C2(C(=O)Nc3cc(Cl)ccc32)C12CCCCC2
[out] 0

[in] Next up: C=C(F)C(=O)N1CCN(c2nc(OCC3CCCN3C)nc3c2CCN(c2cccc4cccc(Cl)c24)C3)CC1CC#N (stereo not given) + CCN1C(C(=O)NC23CCC(C(=O)O)(CC2)CC3)C(c2cccc(Cl)c2F)C2(C(=O)Nc3cc(Cl)ccc32)C12CCCCC2
[out] 0

[in] Now consider O=C(c1cc(Cc2n[nH]c(=O)c3ccccc23)ccc1F)N1CCN(C(=O)C2CC2)CC1 + CCN1C(C(=O)NC23CCC(C(=O)O)(CC2)CC3)C(c2cccc(Cl)c2F)C2(C(=O)Nc3cc(Cl)ccc32)C12CCCCC2 and answer again.
[out] 0

----------
System: 596521-263-R-J1-PDC complex spheroid growth
Assay name: Anticancer human tumor 596521-263-R-J1-PDC cell line growth inhibition [Asc];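 also: spheroids exposed to compounds for 7 days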
Particulars: curve of first compound; second compound 0.0316 µM
Description: Multicellular complex tumor spheroid response to apoptosis pathway targeting inhibitors Alrizomadlin, Pelcitoclax, and Dasminapant in combination with a variety of drugs and investigational agents in selected tumor cell lines […] Compounds. […] If the clinical Cmax for an agent had not been determined, the highest concentration tested was 10 microM. […]
pIC50: −log10 of the molar value.
Measured attribute: pIC50

// batch mode: one pIC50 value per listed entry
1. O=C(c1ccc(F)c(F)c1Nc1ccc(I)cc1F)N1CC(O)([C@@H]2CCCCN2)C1 + CNC(C)C(=O)NC1CN(S(=O)(=O)c2cccc(S(=O)(=O)N3CCC4CCC(C(=O)NC(c5ccccc5)c5ccccc5)N4C(=O)C(NC(=O)C(C)NC)C3)c2)CCC2CCC(C(=O)NC(c3ccccc3)c3ccccc3)N2C1=O
2. CCN1C(C(=O)NC23CCC(C(=O)O)(CC2)CC3)C(c2cccc(Cl)c2F)C2(C(=O)Nc3cc(Cl)ccc32)C12CCCCC2 (stereo not drawn) + Cc1c(S(C)(=O)=O)c(-c2cc(F)cc(N3CCN(c4ccc(NS(=O)(=O)c5ccc(NC(CCN6CCC(C(=O)OCCCP(=O)(O)O)CC6)CSc6ccccc6)c(S(=O)(=O)C(F)(F)F)c5)cc4)CC3)c2)c(-c2ccc(Cl)cc2)n1C(C)C
3. CCN1CCN(Cc2ccc(Nc3ncc(F)c(-c4cc(F)c5nc(C)n(C(C)C)c5c4)n3)nc2)CC1 + CNC(C)C(=O)NC1CN(S(=O)(=O)c2cccc(S(=O)(=O)N3CCC4CCC(C(=O)NC(c5ccccc5)c5ccccc5)N4C(=O)C(NC(=O)C(C)NC)C3)c2)CCC2CCC(C(=O)NC(c3ccccc3)c3ccccc3)N2C1=O

[out]
[6.68, "< 5.52", "< 6.00"]

FYI, the data here is from PubChem BioAssay AID1963449.
